B1: TPR t1 (parent)
chain: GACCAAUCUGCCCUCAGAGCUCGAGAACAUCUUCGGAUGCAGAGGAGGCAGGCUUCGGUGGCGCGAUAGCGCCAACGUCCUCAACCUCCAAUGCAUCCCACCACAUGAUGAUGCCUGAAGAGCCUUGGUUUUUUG

Variants of: B1
Test: polymerase ribozyme fitness, log enrichment relative to wild type (log ratio); higher = more active; in vitro selection for triplet polymerase activity
REPORTED_PROPERTY: polymerase ribozyme fitness (log ratio)
The reply should be a number, written without any unit.

// recorded polymerase ribozyme fitness (log ratio) for A26G C89U : -2.94

// recorded polymerase ribozyme fitness (log ratio) for A5G A41G A50U C72U A75U G93A U112A G113C : -3.59

// recorded polymerase ribozyme fitness (log ratio) for G42C G58A G120U : -1.82

// recorded polymerase ribozyme fitness (log ratio) for C12U G48U : -0.505

// recorded polymerase ribozyme fitness (log ratio) for U32G U33C A43U A91U : -6.04

// recorded polymerase ribozyme fitness (log ratio) for G39A G44C : -1.34

// recorded polymerase ribozyme fitness (log ratio) for G69U C79G : -1.63

// recorded polymerase ribozyme fitness (log ratio) for U32C G44U G60A : -0.98

// recorded polymerase ribozyme fitness (log ratio) for G60U A118C : -2.43

// recorded polymerase ribozyme fitness (log ratio) for C12G C49G U54A : -0.423

// recorded polymerase ribozyme fitness (log ratio) for C49A C101G C115A G120A : -2.2

// recorded polymerase ribozyme fitness (log ratio) for C62A C82U A91G C101G C123U G128U : -3.86

// recorded polymerase ribozyme fitness (log ratio) for A2C G117A : -3

// recorded polymerase ribozyme fitness (log ratio) for U9G U38A G47C C49A : -3.06

// recorded polymerase ribozyme fitness (log ratio) for G48A C49G C56U : -0.3

// recorded polymerase ribozyme fitness (log ratio) for C13A C20U C72U : -2.59

// recorded polymerase ribozyme fitness (log ratio) for A26G C40U G63C U81C U130A : -4.66

// recorded polymerase ribozyme fitness (log ratio) for C34A A75G : -2.34

// recorded polymerase ribozyme fitness (log ratio) for A5U G44U C72A A91C G113C U126G G128A : -5.74

// recorded polymerase ribozyme fitness (log ratio) for C11G A66U U106G : -3.36

// recorded polymerase ribozyme fitness (log ratio) for C72G G117A : -1.8

// recorded polymerase ribozyme fitness (log ratio) for A27U C28U : -2.59

// recorded polymerase ribozyme fitness (log ratio) for G52U C114U U125A : -4.04

// recorded polymerase ribozyme fitness (log ratio) for C3A U55G : -1.43

// recorded polymerase ribozyme fitness (log ratio) for C73U U87A A105U : -1.83

// recorded polymerase ribozyme fitness (log ratio) for G23A A121U : -2.19

// recorded polymerase ribozyme fitness (log ratio) for C13G C15A U106A C123A : -1.05

// recorded polymerase ribozyme fitness (log ratio) for C3U U7G A111U : -1.66

// recorded polymerase ribozyme fitness (log ratio) for A43C C56U U78C U125A : -3.15

// recorded polymerase ribozyme fitness (log ratio) for A43U A50G C72A G93C A95C C115U : -4.47

// recorded polymerase ribozyme fitness (log ratio) for `U67G` : -7.14

// recorded polymerase ribozyme fitness (log ratio) for A46C C56U G63A C114G G127C U129A : -5.93

// recorded polymerase ribozyme fitness (log ratio) for A37C G48C U54C G63A A74U G113A : -5.41

// recorded polymerase ribozyme fitness (log ratio) for C28U A46U G48A A95G C124G : -3.31

// recorded polymerase ribozyme fitness (log ratio) for G52A C79A G110C : -5.08

// recorded polymerase ribozyme fitness (log ratio) for G36U C86A : -1.1

// recorded polymerase ribozyme fitness (log ratio) for G45A C115A : -1.15

// recorded polymerase ribozyme fitness (log ratio) for A16U C56G : -2.56

// recorded polymerase ribozyme fitness (log ratio) for C73A C123G : 1.74

// recorded polymerase ribozyme fitness (log ratio) for A37U U125A : -1.35

// recorded polymerase ribozyme fitness (log ratio) for C72U C86A A90G G110A : -1.38

// recorded polymerase ribozyme fitness (log ratio) for G71C C123U : -0.362

// recorded polymerase ribozyme fitness (log ratio) for A6G G39A A68G C86U G117A : -5.73

// recorded polymerase ribozyme fitness (log ratio) for C11G A119G : 0.484

// recorded polymerase ribozyme fitness (log ratio) for C15A A111G : -2.08

// recorded polymerase ribozyme fitness (log ratio) for U78A G122A : -1.42

// recorded polymerase ribozyme fitness (log ratio) for G47C C86U A105U A121C : -1.01
